# Tested on: Agrobacterium tumefaciens
# method: microbe, parasite or virus in culture
# Type: cell-based
observationType: MBC (µg/mL)
Provide the reading as a plain figure in µg/mL.

A selection of reference data follows.
COc1ccc(NC(=O)C2(NC(=O)c3ccc(-n4cnnn4)cc3)CCCCC2)cc1; 128
COc1cc(-c2cc(-c3ccccc3)nc3sc(C(=O)O)c(N)c23)cc(OC)c1OC; 64
Nc1c(C(=O)O)sc2nc(-c3ccccc3)cc(-c3ccc(F)cc3)c12; 64
CCc1nnc(NC(=O)c2cc3c([nH]c4ccccc43)c(C)n2)s1; 128
O=C1CC(c2ccccc2)CC2=C1C(c1ccc(O)cc1)Nc1ccc(C(=O)c3ccccc3)cc1N2 (stereo not shown); 64
COc1ccc(N(C(=O)c2ccc(-n3cnnn3)cc2)C2(C(=O)Nc3ccccc3C)CCCCC2)cc1; 128
COc1ccc2nc(NC(=O)CSc3nc4cc(C)ccc4[nH]3)sc2c1; 128
O=C1CCCC2=C1[C@H](c1ccccc1)Nc1ccc(C(=O)c3ccccc3)cc1N2; 64

Q) Recorded MBC for CC(C)[C@H](NC(=O)c1ccccc1)C(=O)Nc1cccc(-n2cnnn2)c1 , please?
A) 64

Q) Reported MBC, molecule CCOc1ccc(C2Nc3ccc(C(=O)c4ccccc4)cc3NC3=C2C(=O)CCC3)cc1 (stereo not shown) : ____
A) 64

----------
# Test system: Xanthomonas citri
# method: microbe, parasite or virus in culture
# Format: cell-based, Xanthomonas citri subsp. citri
observationType: MIC (µg/mL)
Numbers only; they are read as µg/mL.

Look over these answered cases.
CC(C)[C@H](NC(=O)c1ccccc1)C(=O)Nc1cccc(-n2cnnn2)c1 [SA3]; 64
COc1cc(-c2cc(-c3ccccc3)nc3sc(C(=O)O)c(N)c23)cc(OC)c1OC [Compound C17]; 16
O=C1CC(c2ccccc2)CC2=C1C(c1cccs1)Nc1ccc(C(=O)c3ccccc3)cc1N2 (centres unmarked) [SA8]; 32

Q) MIC lookup needed for CC(C)[C@H](NC(=O)c1c(F)cccc1F)C(=O)Nc1ccc(-n2cnnn2)cc1 [SA1] , thanks.
A) 64

Q) Which MIC is listed for O=C1CC(c2ccccc2)CC2=C1C(c1ccc(O)cc1)Nc1ccc(C(=O)c3ccccc3)cc1N2 (centres unmarked) [SA6] ?
A) 64

Q) Please give the measured MIC for this compound: COc1ccc(NC(=O)C2(N(C(=O)c3ccc(-n4cnnn4)cc3)c3ccc(OC)cc3)CCCCC2)cc1 [SSC8]
A) 32

Q) Given COc1ccc(NC(=O)C2(NC(=O)c3ccc(-n4cnnn4)cc3)CCCCC2)cc1 [Compound C18] , state its recorded MIC.
A) 16

Q) Which measured MIC value corresponds to Nc1c(C(=O)O)sc2nc(-c3ccccc3)cc(-c3ccc(F)cc3)c12 [SA2] ?
A) 32

----------
# MBC annotations
# Tested on: Xanthomonas citri
# method: microbe, parasite or virus in culture
# Format: cell-based, Xanthomonas citri subsp. citri
Provide the reading as a plain figure in µg/mL.

Example results:
[H]/N=C(/N)N[C@H]1[C@H](O)[C@@H](O)[C@H](O[C@@H]2O[C@@H](C)[C@](O)(C=O)[C@H]2O[C@@H]2O[C@@H](CO)[C@H](O)[C@@H](O)[C@@H]2NC)[C@@H](N/C(N)=N\[H])[C@@H]1O [Streptomycin, reference compound]; 32
COc1cc(-c2cc(-c3ccccc3)nc3sc(C(=O)O)c(N)c23)cc(OC)c1OC; 32

Let us examine a further case.
Q) I'd like to know its MBC. The molecule in question is CC(C)[C@H](NC(=O)c1ccccc1)C(=O)Nc1cccc(-n2cnnn2)c1
A) 128

----------
# Tested on: Bradyrhizobium japonicum
# method: microbe, parasite or virus in culture
# Format: cell-based
# protocolConditions: 120 hrs
observationType: MIC (µg/mL)
Give the value, in units of µg/mL, as a plain number.

CC(C)[C@H](NC(=O)c1ccccc1)C(=O)Nc1cccc(-n2cnnn2)c1; 32
CCc1nnc(NC(=O)c2cc3c([nH]c4ccccc43)c(C)n2)s1; 32
CCOc1ccc(C2Nc3ccc(C(=O)c4ccccc4)cc3NC3=C2C(=O)CCC3)cc1 (centres unmarked); 32
CC(C)[C@H](NC(=O)c1c(F)cccc1F)C(=O)Nc1ccc(-n2cnnn2)cc1; 32

Q) Tell me the measured MIC of COc1ccc(NC(=O)C2(N(C(=O)c3ccc(-n4cnnn4)cc3)c3ccc(OC)cc3)CCCCC2)cc1 , please.
A) 16

----------
Parameter MBC: see the listing below.
# Test system: Xanthomonas citri
# method: microbe, parasite or virus in culture
# Type: cell-based, Xanthomonas citri subsp. citri
Use µg/mL as the unit, but write only the number.

O=C1CCCC2=C1[C@H](c1ccccc1)Nc1ccc(C(=O)c3ccccc3)cc1N2; 64
COc1ccc(NC(=O)C2(NC(=O)c3ccc(-n4cnnn4)cc3)CCCCC2)cc1; 32

Q) Hello, I am looking for reported MBC with Xanthomonas citri for Nc1c(C(=O)O)sc2nc(-c3ccccc3)cc(-c3ccc(F)cc3)c12 . Could you help?
A) 64

Q) Lab request: please report MBC under test system Xanthomonas citri for Cc1cc([C@H]2Nc3ccc(C(=O)c4ccccc4)cc3NC3=C2C(=O)CC(C)(C)C3)cc(C)c1O
A) 64

Q) Provide the documented MBC with Xanthomonas citri as the system for O=C1CC(c2ccccc2)CC2=C1C(c1cccs1)Nc1ccc(C(=O)c3ccccc3)cc1N2 (stereo not drawn)
A) 64

Q) // lookup MBC | system=Xanthomonas citri | key= O=C1CCCC2=C1C(c1cccs1)Nc1ccc(C(=O)c3ccccc3)cc1N2 (stereo not drawn)
A) 32

----------
# System: Xanthomonas citri
# method: microbe, parasite or virus in culture
# Type: cell-based, Xanthomonas citri subsp. citri
# reported MIC; entries follow
// note: answer is a bare numeric in µg/mL

Reference set (5 entries):
COc1ccc2nc(NC(=O)CSc3nc4cc(C)ccc4[nH]3)sc2c1; 32
O=C1CCCC2=C1[C@H](c1ccccc1)Nc1ccc(C(=O)c3ccccc3)cc1N2; 32
COc1ccc(C2Nc3ccc(C(=O)c4ccccc4)cc3NC3=C2C(=O)CC(c2ccccc2)C3)cc1 (stereo not drawn); 64
COc1ccc(N(C(=O)c2ccc(-n3cnnn3)cc2)C2(C(=O)Nc3ccccc3C)CCCCC2)cc1; 32
[H]/N=C(/N)N[C@H]1[C@H](O)[C@@H](O)[C@H](O[C@@H]2O[C@@H](C)[C@](O)(C=O)[C@H]2O[C@@H]2O[C@@H](CO)[C@H](O)[C@@H](O)[C@@H]2NC)[C@@H](N/C(N)=N\[H])[C@@H]1O [Streptomycin, reference compound]; 32

Q) What measured MIC goes with Cc1cc([C@H]2Nc3ccc(C(=O)c4ccccc4)cc3NC3=C2C(=O)CC(C)(C)C3)cc(C)c1O ?
A) 32

Q) Look up MIC: CCOc1ccc(C2Nc3ccc(C(=O)c4ccccc4)cc3NC3=C2C(=O)CCC3)cc1 (stereo not drawn)
A) 32

Q) Need MIC, item O=C1CCCC2=C1C(c1cccs1)Nc1ccc(C(=O)c3ccccc3)cc1N2 (stereo not drawn)
A) 16

Q) Returns the measured MIC for the input compound. Input: CCc1nnc(NC(=O)c2cc3c([nH]c4ccccc43)c(C)n2)s1
A) 16

----------
# Test system: Rhizobium etli
# method: microbe, parasite or virus in culture
# Format: cell-based
# protocolConditions: 24 hrs
observationType: MBC (µg/mL)
Quick reminder: number only, in µg/mL, skip the unit.

CC(C)[C@H](NC(=O)c1c(F)cccc1F)C(=O)Nc1ccc(-n2cnnn2)cc1 [SA1]; 32
COc1ccc(NC(=O)C2(N(C(=O)c3ccc(-n4cnnn4)cc3)c3ccc(OC)cc3)CCCCC2)cc1 [SSC8]; 32
COc1cc(-c2cc(-c3ccccc3)nc3sc(C(=O)O)c(N)c23)cc(OC)c1OC [Compound C17]; 64
O=C1CCCC2=C1C(c1cccs1)Nc1ccc(C(=O)c3ccccc3)cc1N2 (stereo not drawn) [Compound C20]; 64
[H]/N=C(/N)N[C@H]1[C@H](O)[C@@H](O)[C@H](O[C@@H]2O[C@@H](C)[C@](O)(C=O)[C@H]2O[C@@H]2O[C@@H](CO)[C@H](O)[C@@H](O)[C@@H]2NC)[C@@H](N/C(N)=N\[H])[C@@H]1O [Streptomycin, reference compound]; 4

Q) Query MBC on Rhizobium etli for CCOc1ccc(C2Nc3ccc(C(=O)c4ccccc4)cc3NC3=C2C(=O)CCC3)cc1 (stereo not drawn) [SA7]
A) 16

----------
Items are presented alongside their recorded MBC.
# Tested on: Agrobacterium tumefaciens
# method: microbe, parasite or virus in culture
# Type: cell-based
Answer in µg/mL, number only, no unit symbol.

Field: example entries. Status: answers known.
O=C1CC(c2ccccc2)CC2=C1C(c1cccs1)Nc1ccc(C(=O)c3ccccc3)cc1N2 (stereo not drawn) [SA8]; 128
O=C1CCCC2=C1C(c1cccs1)Nc1ccc(C(=O)c3ccccc3)cc1N2 (stereo not drawn) [Compound C20]; 128

Field: next molecule
Q) I have this molecule here, [H]/N=C(/N)N[C@H]1[C@H](O)[C@@H](O)[C@H](O[C@@H]2O[C@@H](C)[C@](O)(C=O)[C@H]2O[C@@H]2O[C@@H](CO)[C@H](O)[C@@H](O)[C@@H]2NC)[C@@H](N/C(N)=N\[H])[C@@H]1O [Streptomycin, reference compound] , and I need its recorded MBC.
A) 128

Value source: patent US9521850B2
